All figures here come from the antibiotic and cytotoxicity screens of Wong et al. (2023).

tested on: HepG2; assay: cytotoxicity call (relative viability < 0.9); conditions: 10 µM
Screen size: about 39,000 compounds; about 3,300 (8.5%) were called active. This is one part of a sample in which actives are shown more often than they occur.
Your answer must be one of the following: 1.0 for active, 0.0 for inactive

Check out these entries, answers already filled in.
INSERT INTO measurements (molecule, target_or_test_system, class_name) VALUES
  ('O=[N+]([O-])c1ccc(N(CCO)CCO)c2c1no[n+]2[O-]', 'HepG2', 1.0),
  ('CNC(=O)Oc1ccc2c(c1)C1(C)CCN(C)C1N2C.O=S(=O)(O)O (configuration not stated)', 'HepG2', 1.0),
  ('NC(=O)N1C[C@@H]2C[C@H]1CN2', 'HepG2', 0.0),
  ('O=c1ccc(=O)[nH][nH]1', 'HepG2', 0.0),
  ('Br.COc1ccc2c(c1)C13CCCCC1C(C2)N(C)CC3 (configuration not stated)', 'HepG2', 0.0);

-- ask Field: outcome | Entry: C[C@@H]1NC[C@@H]2CCCN2C1=O
-- reply 0.0

-- ask Field: outcome | Entry: CC(C)[C@@]1(NC(=O)[C@@H]2C[C@@H]3c4cccc5[nH]cc(c45)C[C@H]3N(C)C2)O[C@@]2(O)[C@@H]3CCCN3C(=O)[C@H](Cc3ccccc3)N2C1=O
-- reply 0.0
